The following molecules are shown together with reported inhibition values.
- ASSAYED TARGET: AChE from Electrophorus electricus (eelAChE) type VI-S (Electrophorus electricus, UniProt O42275)
- Construct: purchased Sigma-Aldrich type VI-S
- Sequence (O42275 24-633): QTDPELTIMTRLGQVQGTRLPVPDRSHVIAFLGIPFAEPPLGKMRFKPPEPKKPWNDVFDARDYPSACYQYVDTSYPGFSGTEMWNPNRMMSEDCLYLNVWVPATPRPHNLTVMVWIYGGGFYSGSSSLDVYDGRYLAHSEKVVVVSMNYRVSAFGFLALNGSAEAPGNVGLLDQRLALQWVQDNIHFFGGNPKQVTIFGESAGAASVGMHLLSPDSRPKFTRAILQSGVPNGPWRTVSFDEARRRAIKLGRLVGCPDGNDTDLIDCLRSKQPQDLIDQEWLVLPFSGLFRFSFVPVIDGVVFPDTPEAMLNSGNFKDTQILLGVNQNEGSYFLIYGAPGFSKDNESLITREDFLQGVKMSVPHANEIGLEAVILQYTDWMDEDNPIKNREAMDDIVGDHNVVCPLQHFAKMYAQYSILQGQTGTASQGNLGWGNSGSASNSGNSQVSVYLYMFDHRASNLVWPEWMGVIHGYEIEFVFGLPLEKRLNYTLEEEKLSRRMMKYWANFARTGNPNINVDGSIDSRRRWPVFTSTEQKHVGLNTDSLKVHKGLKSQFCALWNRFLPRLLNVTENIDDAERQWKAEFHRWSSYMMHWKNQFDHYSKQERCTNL
- PROTOCOL DETAILS: biochemical
- TEST PARAMETERS: pH 8, 10 μL of 1.0 mM compound stock in 100 μL reaction mixture; 20 μL ACh stock 350 μM; ammonium acetate 15 mM pH 8.0; read-out: % Inhibition eelAChE-ICER
Reply numerically in %, unit not repeated.

IN: So what does the record say about inhibition for COc1cc2c(cc1O)[C@@H]1Cc3ccc(O)c(OC)c3C[N@+]1(Cc1ccccc1)CC2 [1a, (7R,13aS)-7-benzylstepholidine] ?
OUT: 90.1

IN: Query (molecule): COc1cc2c(cc1O)[C@@H]1Cc3ccc(OCc4ccccc4)c(OC)c3CN1CC2 [1d, (S)-10-O-benzylstepholidine] ; field requested: inhibition
OUT: 46.3

IN: Name the reported inhibition value associated with the molecule COc1cc2c(cc1OCc1ccccc1)[C@@H]1Cc3ccc(OCc4ccccc4)c(OC)c3CN1CC2 [1e, (S)-O, O-dibenzylstepholidine]
OUT: 43.6

====

- ASSAYED TARGET: AChE from Electrophorus electricus (eelAChE) type VI-S (Electrophorus electricus)
Items are presented alongside their recorded IC50.
Number only, in µM; omit the unit.

compound="COc1cc2c(cc1O)[C@@H]1Cc3ccc(O)c(OC)c3C[N@@+]1(Cc1ccccc1)CC2 [1b, (7S,13aS)-7-benzylstepholidine]" unit_of_measure=µM experimental_result=51.9

Now turn to the next compound.
IN: Give IC50 (AChE from Electrophorus electricus (eelAChE) type VI-S (Electrophorus electricus)) of the following compound: COc1cc2c(cc1O)[C@@H]1Cc3ccc(O)c(OC)c3C[N@+]1(Cc1ccccc1)CC2 [1a, (7R,13aS)-7-benzylstepholidine]
OUT: 40.6
